Tested on: P. aeruginosa LpxC (Pseudomonas aeruginosa)
Construct: made in house
Run description: biochemical
Assay conditions: IC50 (LpxC inhibitory activity), 1 nM P. aeruginosa LpxC, 30 min pre-incubation, 2 μM UDP-3-O-(R-3-hydroxydecanoyl)-GlcNAc, pH 7.5, room temperature
Reported values of IC50 for individual entries

[
  {
    "Cpd smiles": "CC#CCOc1ccc(C(=O)N[C@H](C(=O)NO)[C@@H](N)C(F)(F)F)cc1",
    "Readout units": "nM",
    "IC50": 13.5
  },
  {
    "Cpd smiles": "CC#CCOc1ccc(C(=O)N[C@H](C(=O)NO)[C@H](N)C(C)C)cc1",
    "Readout units": "nM",
    "IC50": 268
  },
  {
    "Cpd smiles": "CC#CCOc1ccc(C(=O)N[C@H](C(=O)NO)[C@@H](C)N)cc1",
    "Readout units": "nM",
    "IC50": 8.7
  },
  {
    "Cpd smiles": "CC#CCOc1ccc(C(=O)N[C@H](C(=O)NO)[C@H](N)C2CC2)cc1",
    "Readout units": "nM",
    "IC50": 124
  },
  {
    "Cpd smiles": "CC#CCOc1ccc(C(=O)N[C@@H](C(=O)NO)[C@@H](N)C(C)C)cc1",
    "Readout units": "nM",
    "IC50": 70
  }
]

---

Reported values of pIC50 for individual entries
Tested on: P. aeruginosa LpxC (Pseudomonas aeruginosa, UniProt P47205)
Construct: made in house
Sequence (P47205 whole entry): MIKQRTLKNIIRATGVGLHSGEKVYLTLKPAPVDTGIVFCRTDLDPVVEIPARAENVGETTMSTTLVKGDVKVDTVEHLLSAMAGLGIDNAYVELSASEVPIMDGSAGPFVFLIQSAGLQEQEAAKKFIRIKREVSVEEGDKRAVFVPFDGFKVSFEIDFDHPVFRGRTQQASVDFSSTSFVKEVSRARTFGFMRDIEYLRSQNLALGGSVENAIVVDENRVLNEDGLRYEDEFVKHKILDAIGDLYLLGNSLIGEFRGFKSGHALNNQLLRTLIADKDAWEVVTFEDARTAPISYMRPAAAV
Run description: biochemical
Assay conditions: 1 nM P. aeruginosa LpxC, 30 min pre-incubation, 2 μM UDP-3-O-(R-3-hydroxydecanoyl)-GlcNAc, pH 7.5, room temperature; read-out: IC50 (LpxC inhibitory activity)
pIC50: −log10 of the molar value.

[
  {
    "Molecule": "C[C@@H](N)[C@H](NC(=O)c1ccc(OCCCC2CC2)cc1)C(=O)NO",
    "pIC50": 7.88
  },
  {
    "Molecule": "CC(C)(N)[C@H](NC(=O)c1ccc(OCC#Cc2cccnc2)cc1)C(=O)NO",
    "pIC50": 8.00
  },
  {
    "Molecule": "CC(C)(N)[C@H](NC(=O)c1ccc(OCCC2CC2)cc1)C(=O)NO",
    "pIC50": 8.10
  },
  {
    "Molecule": "CC(C)(N)[C@H](NC(=O)c1ccc(OCC#CC2CCC2)cc1)C(=O)NO",
    "pIC50": 10.52
  },
  {
    "Molecule": "CC#CCOc1ccc(C(=O)N[C@H](C(=O)NO)C(C)(C)N)c(O)c1",
    "pIC50": 8.52
  },
  {
    "Molecule": "COc1cccc(C#CCOc2ccc(C(=O)N[C@H](C(=O)NO)C(C)(C)N)cc2)c1",
    "pIC50": 8.70
  },
  {
    "Molecule": "CC#CCOc1ccc(C(=O)NC(C(=O)NO)C(C)(C)N)c(F)c1F (stereo not shown)",
    "pIC50": 7.80
  },
  {
    "Molecule": "CC#CCNc1ccc(C(=O)N[C@H](C(=O)NO)[C@@H](C)N)cc1",
    "pIC50": 7.56
  },
  {
    "Molecule": "C[C@@H](N)[C@H](NC(=O)c1ccc(OCC#CC2CCC2)cc1)C(=O)NO",
    "pIC50": 8.19
  },
  {
    "Molecule": "COCC#CCOc1ccc(C(=O)N[C@H](C(=O)NO)[C@@H](C)N)cc1",
    "pIC50": 7.24
  },
  {
    "Molecule": "CC(C)(N)C(NC(=O)c1ccc(OCC#CC2CCCC2)cc1)C(=O)NO (stereo not shown)",
    "pIC50": 8.66
  },
  {
    "Molecule": "C[C@@H](N)[C@H](NC(=O)c1ccc(OCCC2CC2)cc1)C(=O)NO",
    "pIC50": 7.61
  },
  {
    "Molecule": "CCCCCC#CCNc1ccc(C(=O)N[C@@H](CN)C(=O)NO)cn1",
    "pIC50": 7.25
  },
  {
    "Molecule": "C[C@@H](N)[C@H](NC(=O)c1ccc(OCC#CC2CC2)cc1)C(=O)NO",
    "pIC50": 8.22
  },
  {
    "Molecule": "CC(C)(N)[C@H](NC(=O)c1ccc(OCC#Cc2ccc3c(c2)CCO3)cc1)C(=O)NO",
    "pIC50": 6.27
  },
  {
    "Molecule": "C[C@@H](N)[C@H](NC(=O)c1ccc(OCC#Cc2ccccc2)cc1)C(=O)NO",
    "pIC50": 9.00
  }
]
